- Tested on: HCC1569;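 also: TDF is a line of transformed human dermal fibroblasts of mesenchymal origin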
- assay protocol: H1.0 immunofluorescence intensity relative to DMSO (% of DMSO); higher = stronger H1.0 induction, active = 140 or more
- condition notes: concentration: 10 µM; 24 h
Each record here notes measured H1.0 immunofluorescence intensity.
measurement type: H1.0 immunofluorescence intensity

>  <compound>
CCCCCC=CCC=CCC=CCC=CCCCC(=O)NCCc1ccc(O)c(O)c1 [Arachidonyl dopamine]

>  <assay result>
124

$$$$
>  <compound>
CCC1=CC2CN3CCc4c([nH]c5ccccc45)C(C(=O)OC)(C2)C13 (stereo not drawn) [Catharanthine]

>  <assay result>
92.1

$$$$
>  <compound>
[Cl-].c1ccc2c(c1)[I+]c1ccccc1-2 [Diphenyleneiodonium chloride]

>  <assay result>
125

$$$$
>  <compound>
CC(C)CC(NP(=O)([O-])OC1OC(C)C(O)C(O)C1O)C(=O)NC(Cc1c[nH]c2ccccc12)C(=O)[O-].[Na+].[Na+] (stereo not drawn) [Phosphoramidon disodium]

>  <assay result>
102

$$$$
>  <compound>
COc1cc(C(=O)OC2CC3CCC(C2)N3C)ccc1O (stereo not drawn) [Fillalbin]

>  <assay result>
94.5

$$$$
>  <compound>
NC(=O)COc1c(F)cc(SCCNS(=O)(=O)c2ccccc2)cc1F

>  <assay result>
106

$$$$
>  <compound>
CC(C)NC(C)Cc1ccc(I)cc1.Cl (stereo not drawn) [Iofetamine hydrochloride]

>  <assay result>
91.7

$$$$
>  <compound>
CCC(C(=O)O)C1OC(C(C)C(O)C(C)C(=O)C(CC)C2OC3(C=CC(O)C4(CCC(C)(C5CCC(O)(CC)C(C)O5)O4)O3)C(C)CC2C)C(C)CC1C (stereo not drawn) [Narasin]

>  <assay result>
159

$$$$
